# target-under-test: human PD-L1 (Homo sapiens (Human), UniProt Q9NZQ7)
# Sequence (Q9NZQ7 19-239): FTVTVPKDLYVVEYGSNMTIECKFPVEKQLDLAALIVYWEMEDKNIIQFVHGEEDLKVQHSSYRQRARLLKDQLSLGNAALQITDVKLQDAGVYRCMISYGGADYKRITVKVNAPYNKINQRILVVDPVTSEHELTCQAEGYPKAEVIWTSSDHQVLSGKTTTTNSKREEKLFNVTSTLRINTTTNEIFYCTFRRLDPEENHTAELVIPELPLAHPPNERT
# assay-method-text: Enzyme-Linked Immunosorbent Assay (ELISA), PD-1/PD-L1 binding
# measurement-context: PD-1/PD-L1 ELISA, human PD-L1 coated plates, Table 1
value-kind: IC50

>>> measured_result("COc1cc(-c2cccc(-c3cccc(NC(=O)C4CCNCC4)c3C)c2C)cc(F)c1CNCCO")
"10 to 1000 nM"
>>> measured_result("COc1cc(-c2cccc(-c3cccc(NC(=O)c4ccncn4)c3C)c2C)cc(F)c1CN1CC(O)C1")
"< 10 nM"
>>> measured_result("COc1ccc(C(=O)Nc2cccc(-c3cccc(-c4cc(F)c(CN5CC(C(=O)O)C5)c(OC)c4)c3C)c2C)nc1")
"< 10 nM"
>>> measured_result("COc1cc(-c2cccc(-c3cccc(Nc4ncnc5cccnc45)c3C)c2C)cc(F)c1CN1CC(C(=O)O)C1")
"1000 to 10000 nM"
>>> measured_result("COc1cc(-c2cccc(-c3cccc(NC(=O)c4ccc(CO)cn4)c3C)c2C)cc(F)c1CN1CC(C(=O)O)C1")
"< 10 nM"
>>> measured_result("COc1cc(-c2cccc(-c3cccc(NC(=O)c4cnc(CO)cn4)c3C)c2C)cc(F)c1CN1CC(C(=O)O)C1")
"< 10 nM"
>>> measured_result("COc1cc(-c2cccc(-c3cccc(NC(=O)c4cnc(C(=O)O)cn4)c3C)c2C)cc(F)c1CN")
"< 10 nM"
>>> measured_result("COc1cc(-c2cccc(-c3cccc(NC(=O)N4CCNCC4)c3C)c2C)cc(F)c1CN")
"10 to 1000 nM"

----------
Catalogue of compounds with associated pIC50
# target-under-test: human PD-L1 (Homo sapiens (Human), UniProt Q9NZQ7)
# assay-method-text: Enzyme-Linked Immunosorbent Assay (ELISA), PD-1/PD-L1 binding
# measurement-context: human PD-1/PD-L1 ELISA, plates coated with human PD-L1
pIC50: −log10 of the molar value.
value-kind: pIC50

>>> measured_result("COc1cc(-c2cccc(-c3cccc(Nc4nccc5nccnc45)c3C)c2C)cc(F)c1CNC(C)C")
"> 8.00"
>>> measured_result("COc1cc(-c2cccc(-c3cccc(NC(=O)c4cncn(C)c4=O)c3C)c2C)cc(F)c1CNCC1(O)CC1")
"> 8.00"
>>> measured_result("COc1cc(-c2cccc(-c3cccc(NC(=O)c4cncn(C)c4=O)c3C)c2C)cc(F)c1CN1CCNC(=O)C1")
"5.00 to 6.00"
>>> measured_result("COc1cc(-c2cccc(-c3cccc(NC(=O)c4cn(C)c(=O)n(C)c4=O)c3C)c2F)cc(F)c1CNCC(C)(C)C(N)=O")
"> 8.00"
>>> measured_result("COc1cc(-c2cccc(-c3cccc(Nc4nccc5nccnc45)c3C)c2C)cc(F)c1CN[C@H]1CCC[C@@H]1O")
"> 8.00"
>>> measured_result("COc1cc(-c2cccc(-c3cccc(NC(=O)c4cn(C)c(=O)n(C)c4=O)c3C)c2C)cc(F)c1CNC1CCNC(=O)C1 (centres unmarked)")
"> 8.00"
>>> measured_result("COc1cc(-c2cccc(-c3cccc(NC(=O)c4nc5c(s4)CN(CCO)CC5)c3F)c2C)cc(F)c1CNCCO")
"> 8.00"
>>> measured_result("COc1cc(-c2cccc(-c3cccc(NC(=O)c4c[nH]c(=O)n(C)c4=O)c3C)c2C)cc(F)c1CNCCCC(N)=O")
"> 8.00"
>>> measured_result("COc1cc(-c2cccc(-c3cccc(NC(=O)c4cn(C)c(=O)n(C)c4=O)c3C)c2C)cc(F)c1CNCCC1CNC(=O)C1 (centres unmarked)")
"> 8.00"
>>> measured_result("COc1cc(-c2cccc(-c3cccc(NC(=O)c4c[nH]c(=O)n(C)c4=O)c3C)c2C)cc(F)c1CN[C@@H]1CCNC1=O")
"6.00 to 8.00"
>>> measured_result("COc1cc(-c2cccc(-c3cccc(NC(=O)c4cn(C)c(=O)n(C)c4=O)c3Cl)c2Cl)cc(F)c1CN[C@H]1CCOC[C@H]1O")
"> 8.00"
>>> measured_result("COc1cc(-c2cccc(-c3cccc(Nc4cncc5nccnc45)c3C)c2C)cc(F)c1CN[C@H]1CCC(=O)NC1")
"> 8.00"
>>> measured_result("COc1cc(-c2cccc(-c3cccc(NC(=O)c4cncn(C)c4=O)c3C)c2C)cc(F)c1CN[C@H]1CCC[C@@H]1O")
"> 8.00"
>>> measured_result("COc1cc(-c2cccc(-c3cccc(NC(=O)c4c[nH]c(=O)n(C)c4=O)c3C)c2C)cc(F)c1CN[C@@H]1CCOC1")
"> 8.00"
>>> measured_result("COc1cc(-c2cccc(-c3cccc(NC(=O)c4ccc(CNCCO)cn4)c3C)c2C)cc(F)c1CNCCO")
"> 8.00"
>>> measured_result("COc1cc(-c2cccc(-c3cccc(NC(=O)c4c[nH]c(=O)n(C)c4=O)c3C)c2C)cc(F)c1CNCC1CCCNC1=O (centres unmarked)")
"> 8.00"
>>> measured_result("COc1cc(-c2cccc(-c3cccc(NC(=O)c4cncn(C)c4=O)c3C)c2C)cc(F)c1CNCCC(N)=O")
"> 8.00"
>>> measured_result("COc1cc(-c2cccc(-c3cccc(NC(=O)c4cn(C)c(=O)n(C)c4=O)c3F)c2C)cc(F)c1CN[C@@H]1CNC(=O)C1")
"6.00 to 8.00"
>>> measured_result("COc1cc(-c2cccc(-c3cccc(NC(=O)c4cn(C)c(=O)n(C)c4=O)c3C)c2C)cc(F)c1CNC[C@H]1CCC(=O)N1")
"> 8.00"
>>> measured_result("COc1cc(-c2cccc(-c3cccc(NC(=O)c4cn(C)c(=O)n(C)c4=O)c3C)c2C)cc(F)c1CN[C@@H]1COC[C@H]1O")
"> 8.00"
>>> measured_result("COc1cc(-c2cccc(-c3cccc(NC(=O)c4cn(C)c(=O)n(C)c4=O)c3C)c2C)cc(F)c1CNCC1CCNC(=O)C1 (centres unmarked)")
"> 8.00"
>>> measured_result("COc1cc(-c2cccc(-c3cccc(Nc4nccc5c4C(=O)N(C)CC5)c3C)c2C)cc(F)c1CN(C)C[C@@H]1CCC(=O)N1")
"6.00 to 8.00"
>>> measured_result("COc1cc(-c2cccc(-c3cccc(NC(=O)c4cn(C)c(=O)n(C)c4=O)c3C)c2C)cc(F)c1CNCC1CCCNC1=O (centres unmarked)")
"> 8.00"
>>> measured_result("COc1cc(-c2cccc(-c3cccc(NC(=O)c4nn(C)c(=O)n(C)c4=O)c3C)c2C)cc(F)c1CNCC[C@@H]1CCC(=O)N1")
"> 8.00"
>>> measured_result("COc1cc(-c2cccc(-c3cccc(NC(=O)c4cncn(C)c4=O)c3C)c2C)cc(F)c1CNC1CCOC1 (centres unmarked)")
"> 8.00"
>>> measured_result("COc1cc(-c2cccc(-c3cccc(NC(=O)c4cncn(C)c4=O)c3C)c2C)cc(F)c1CNC[C@H]1CCC(=O)N1")
"> 8.00"
